Origin of the recorded values: patent US20240309087A1

Molecular target: T1, hCD112R mFC recombinant protein (human; murine, UniProt Q6DKI7 41-160)
T1 construct: range 41-160; expressed in 293E cells; also called hCD112R ECD mFC; hCD112R-ECD-mFC; not shown: murine IgG2a Fc domain (MX2-mFc vector)
T1 sequence (looked up): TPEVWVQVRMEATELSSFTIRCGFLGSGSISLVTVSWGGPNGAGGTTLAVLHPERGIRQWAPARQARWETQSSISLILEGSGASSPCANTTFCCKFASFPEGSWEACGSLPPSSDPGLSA
Test: FACS competition, hCD112R mFc on CHO CD112 cells; IC50 COM701/IC50 antibody
A collection of binders and their measured Relative activity (%)
Numeric only. Scale: %

Inquiry: Give the measured Relative activity (%) of Hu23 (antibody, IgG4, V domains shown, humanized IgG4) VH: EVQLVESGGGLVKPGGSLRLSCAASGFTFSSYHMSWVRQAPGKGLELVSAISRDGDSTYYPDTVKGRFTISRDDAENSLYLQMNSLRAEDTAVYYCSRHEDYFGFAMDSWGQGTLVTVSS VL: DIQMTQSPSSLSASVGDRVTITCKASQSVSNDVAWYQQKPGKAPKLLIYYVSNRFTGVPSRFSGSGSGTDFTLTISSLQPEDFATYFCQQAYRSPWTFGQGTKLEIK .
Reply text: 141

Inquiry: Repeat for the following binder: Hu54 (antibody, IgG4, V domains shown, humanized IgG4) VH: EVQLVESGGGLVKPGGSLRLSCAASGFTFSSYHMSWVRQAPGKGLELVSAINSNGINTYYLDTVKGRFTISRDNAKNSLYLQMNSLRAEDTAVYYCARHEDYYGFAMDYWGQGTLVTVSS VL: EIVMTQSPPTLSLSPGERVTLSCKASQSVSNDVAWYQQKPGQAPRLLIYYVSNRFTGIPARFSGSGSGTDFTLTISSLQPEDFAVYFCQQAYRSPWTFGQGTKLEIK
Reply text: 74.1

Inquiry: Repeat for the following binder: Hu13 (antibody, IgG4, V domains shown, humanized IgG4) VH: EVQLVESGGGLVKPGGSLRLSCAASGFTFSSYHMSWVRQAPGKGLELVSAISRDGDSTYYPDTVKGRFTISRDNAKNSLYLQMNSLRAEDTAVYYCSRHEDYFGFAMDSWGQGTLVTVSS VL: DIVMTQSPDSLAVSLGERATINCKASQSVTNDVAWYQQKPGQPPKLLIYYVSNHYTGVPDRFSGSGSGTDFTLTISSLQAEDVAVYFCQQAYRSPWTFGQGTKLEIK
Reply text: 164
